biological target: human GLP1R (Homo sapiens (Human), UniProt P43220); experiment: cAMP responsive luciferase reporter assay, HEK293/CRE-Luc/hGLP1R cells; assay type: cell-based; details: relative to P8 of the same experiment
Sequence (P43220 24-463): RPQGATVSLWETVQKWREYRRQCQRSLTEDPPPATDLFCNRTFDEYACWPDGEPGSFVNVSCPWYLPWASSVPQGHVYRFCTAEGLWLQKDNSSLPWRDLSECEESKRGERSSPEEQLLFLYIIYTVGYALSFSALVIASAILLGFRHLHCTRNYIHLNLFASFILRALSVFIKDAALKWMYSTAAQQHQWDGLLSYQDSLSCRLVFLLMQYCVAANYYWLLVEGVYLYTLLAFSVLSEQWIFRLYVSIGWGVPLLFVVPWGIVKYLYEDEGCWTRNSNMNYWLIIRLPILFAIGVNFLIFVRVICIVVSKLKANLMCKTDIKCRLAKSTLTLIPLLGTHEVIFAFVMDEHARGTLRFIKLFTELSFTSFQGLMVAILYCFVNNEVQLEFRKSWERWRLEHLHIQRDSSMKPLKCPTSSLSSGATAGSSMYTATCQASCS
Where a SMILES comes first, the peptide text is derived from it. [ ]: non-standard residue; d: D form. The star is where a group is joined. Bip(2'-Et,4'-O(CH2)4NH2) = CCc1cc(OCCCCN)ccc1-c1ccc(C[C@H](N)C(=O)O)cc1; Malonyl(2,2-Me2,histaminyl) = CC(C)(C(=O)NCCc1cnc[nH]1)C(=O)*; Nva(5-(3,5-Me2Ph)) = Cc1cc(C)cc(CCC[C@H](N)C(=O)O)c1; Ala(1H-tetrazol-5-yl) = N[C@@H](Cc1nnn[nH]1)C(=O)O; αMePhe(2-F) = C[C@](N)(Cc1ccccc1F)C(=O)O
property.label: HEK293/CRE-LUC/hGLP1R Relative Potency (% P8 EC50) (%)
Report only the number, with the unit % understood.

CCc1cc(OCCCCN)ccc1-c1ccc(C[C@H](NC(=O)[C@H](CC(=O)O)NC(=O)[C@H](CO)NC(=O)[C@@H](NC(=O)[C@](C)(Cc2ccccc2F)NC(=O)[C@@H](NC(=O)CNC(=O)[C@H](Cc2nn[nH]n2)NC(=O)[C@H](C)NC(=O)[C@@H](N)Cc2cnc[nH]2)[C@@H](C)O)[C@@H](C)O)C(=O)N[C@@H](CCCc2cc(C)cc(C)c2)C(N)=O)cc1 [P10] (H-HA[Ala(1H-tetrazol-5-yl)]GT[αMePhe(2-F)]TSD[Bip(2'-Et,4'-O(CH2)4NH2)][Nva(5-(3,5-Me2Ph))]-NH2) : 38.0

Now take the following molecule into account.
[Q] For the molecule CCc1cc(OCCCCN)ccc1-c1ccc(C[C@H](NC(=O)[C@H](CC(=O)O)NC(=O)[C@H](CO)NC(=O)[C@@H](NC(=O)[C@](C)(Cc2ccccc2F)NC(=O)[C@@H](NC(=O)CNC(=O)[C@H](Cc2nn[nH]n2)NC(=O)C(C)(C)C(=O)NCCc2cnc[nH]2)[C@@H](C)O)[C@@H](C)O)C(=O)N[C@@H](CCCc2cc(C)cc(C)c2)C(N)=O)cc1 [P9] ({Malonyl(2,2-Me2,histaminyl)}-[Ala(1H-tetrazol-5-yl)]GT[αMePhe(2-F)]TSD[Bip(2'-Et,4'-O(CH2)4NH2)][Nva(5-(3,5-Me2Ph))]-NH2) , what HEK293/CRE-LUC/hGLP1R Relative Potency (% P8 EC50) is on record?
[A] 133.8
